Taken from the NIST ThermoML archive (doi:10.1021/je900888e).

Test: mn = molality of the nth substance listed, in mol/kg
Settings: 288.15 K; 101 kPa; Liquid; m2 = 0
# maps each entry to its mass density
Kindly provide the numeric value in kg/m3 only, without the unit symbol.

Previously resolved entries follow.
compound: CCCCO [butan-1-ol] + CCCC[P+](CCCC)(CCCC)CCCC.[Br-]
mass density / kg/m3: 813.269

compound: CCCO [propan-1-ol] + CCCC[P+](CCCC)(CCCC)CCCC.[Br-]
mass density / kg/m3: 807.448

compound: CC(C)=O [acetone] + CCCC[P+](CCCC)(CCCC)CCCC.[Br-]
mass density / kg/m3: 795.633

Given the compound CC#N [acetonitrile] + CCCC[P+](CCCC)(CCCC)CCCC.[Br-] , what is its reported mass density?
787.275

Please look up its mass density: CCO [ethanol] + CCCC[P+](CCCC)(CCCC)CCCC.[Br-]
793.628
